Reference for the values: ChEMBL document CHEMBL5303304

Please respond with reported Growth Rate for every item in the list.
Test system: HEK-293T
protocol-notes: Incucyte cell viability with HEK293T; further: unitless GR value; below 1 slowed growth and below 0 cell loss
Assay type: toxicity, cell-based
condition-notes: human, 18 h, 10 µM, compound concentration 10 uM, replicate number 2
Give a plain numeric answer without units written out.

May I ask what Growth Rate has been recorded for `CNc1nc(Nc2ccc(C(=O)N3CCOCC3)cc2OC)nc2[nH]cc(Cl)c12` ?
0.08

Can you look up the measured Growth Rate of `Cc1cc(C)nc(Nc2ncc(C(=O)NCCc3c(C)[nH]c4ccccc34)cn2)c1.Cl` for me?
1

Quick one: Growth Rate for `NS(=O)(=O)c1ccc(Nc2nc(OCC3CCCCC3)c3nc[nH]c3n2)cc1` ?
0.9

// returns reported Growth Rate for input `CN(C)C/C=C/C(=O)Nc1cccc(C(=O)Nc2ccc(Nc3nccc(-c4cccnc4)n3)cc2)c1`
-0.44

Which measured Growth Rate value corresponds to `O=C(Nc1ccc(Cl)c(-c2ccccn2)c1)c1cccc(COc2ccc(Br)cc2CNCCO)c1.O=CO` ?
-0.2

Need Growth Rate of COCCNC1CCC(Nc2cc(-c3csc(NCC4(C#N)CCOCC4)n3)c(Cl)cn2)CC1 (configuration not stated) , thanks.
-0.43

May I ask what Growth Rate has been recorded for `Cc1ccc(S(=O)(=O)O)cc1.Cn1cc(Nc2nccc(N3CC4CCC(C3)N4C(=O)[C@@H]3CC3(F)F)n2)cn1` ?
0.98

Data request, read-out Growth Rate, for O=c1cccc2n1C[C@@H]1CNC[C@H]2C1 [CYTISINICLINE]
0.92

// Growth Rate lookup, key: Cc1nnc2ccc(-c3cccc(C(F)(F)F)c3)nn12 [CI-218872]
0.95

Recorded Growth Rate for `CN(C)C/C=C/C(=O)Nc1cccc(S(=O)(=O)N2CCC(NC(=O)c3n[nH]cc3NC(=O)c3c(Cl)cc(Cl)cc3Cl)CC2)c1` , please?
-0.61

Would you mind telling me what Growth Rate value was observed for `Cl.Cl.O=[N+]([O-])c1ccc(CN2CCOCCOCCN(Cc3ccc([N+](=O)[O-])cc3)CCOCC2)cc1` ?
0.39

Using the record for CC(C)(C)C1CCc2c(sc(NC(=O)c3ccco3)c2C(=O)O)C1 (configuration not stated) , report its Growth Rate.
-0.17
